# subject of test: human mGluR2 receptor (Homo sapiens, UniProt Q14416)
# Construct: expressed in transfected cells
# Sequence (Q14416 19-872): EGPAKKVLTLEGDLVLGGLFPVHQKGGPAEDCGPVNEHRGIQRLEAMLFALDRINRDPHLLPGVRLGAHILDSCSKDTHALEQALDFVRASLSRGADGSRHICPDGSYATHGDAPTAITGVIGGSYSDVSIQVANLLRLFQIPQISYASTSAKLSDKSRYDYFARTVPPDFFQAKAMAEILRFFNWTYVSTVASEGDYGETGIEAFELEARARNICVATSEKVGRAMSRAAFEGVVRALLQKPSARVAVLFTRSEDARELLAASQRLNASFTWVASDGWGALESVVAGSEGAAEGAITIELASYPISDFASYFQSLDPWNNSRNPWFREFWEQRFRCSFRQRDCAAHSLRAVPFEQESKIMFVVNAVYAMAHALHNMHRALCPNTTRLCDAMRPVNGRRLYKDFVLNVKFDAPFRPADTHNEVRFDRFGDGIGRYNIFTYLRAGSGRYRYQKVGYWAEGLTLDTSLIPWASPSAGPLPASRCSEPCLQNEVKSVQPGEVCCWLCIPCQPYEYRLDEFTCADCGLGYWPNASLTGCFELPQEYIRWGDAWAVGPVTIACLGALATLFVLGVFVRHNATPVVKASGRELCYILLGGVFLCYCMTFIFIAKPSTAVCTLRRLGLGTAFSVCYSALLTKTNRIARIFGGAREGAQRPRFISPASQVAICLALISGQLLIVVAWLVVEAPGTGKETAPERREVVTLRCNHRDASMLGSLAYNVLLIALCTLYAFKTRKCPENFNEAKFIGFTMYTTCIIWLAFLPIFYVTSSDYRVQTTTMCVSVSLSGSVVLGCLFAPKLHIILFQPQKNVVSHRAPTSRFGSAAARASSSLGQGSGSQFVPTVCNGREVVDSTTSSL
# protocol description: [35S]-GTPγS binding assay of mGluR2 receptor activation
# Format: biochemical
# condition description: membranes from CHO cells stably expressing human mGluR2; 1 μM glutamate
property: EC50 (nM)

Below, each entry is followed by its recorded EC50 result.
>  <molecule>
COCCCNCc1cc(C)c2c(c1)CN(Cc1ccc(OC(F)(F)F)cc1)C2=O [Example 51]

>  <assay value>
1800

$$$$
>  <molecule>
CN1CCN(c2cc(Cl)c3c(c2)CN(Cc2ccc(Cl)cc2)C3=O)CC1 [Example 133]

>  <assay value>
590

$$$$
>  <molecule>
Cc1cc(C2CCN(C)CC2)cc2c1C(=O)N(Cc1ccc(OC(F)(F)F)cc1)C2 [Example 159]

>  <assay value>
1280

$$$$
>  <molecule>
Cc1cc(N2CCCN(C)CC2)cc2c1C(=O)N(Cc1ccc(OC(F)(F)F)cc1)C2 [Example 113]

>  <assay value>
1210

$$$$
>  <molecule>
Cc1cc(C(=O)N2CCN(Cc3ccncc3)CC2)cc2c1C(=O)N(Cc1ccc(OC(F)(F)F)cc1)C2 [Example 162]

>  <assay value>
550

$$$$

(a) O=C1c2c(Cl)cc(-c3ccncc3)cc2CN1Cc1ccc(OC(F)(F)F)cc1 [Example 102]
(b) Cc1cc(CN2CCC(CCCc3ccc(-n4ccnc4)cc3)CC2)cc2c1C(=O)N(Cc1ccc(OC(F)(F)F)cc1)C2 [Example 55]
Just tell me: smaller EC50 value, a or b ? Pick one and reply with its label.
b
(b: 20 nM, a: 90 nM)

* * *

# subject of test: human mGluR2 receptor (Homo sapiens, UniProt Q14416)
# Construct: expressed in transfected cells
# protocol description: [35S]-GTPγS binding assay of mGluR2 receptor activation
# Format: biochemical
pEC50: −log10 of the molar value.
property: pEC50

>  <smiles string>
O=C1c2c(Cl)cc(CC3CCN(Cc4ccncc4)CC3)cc2CN1Cc1ccc(OC(F)(F)F)cc1

>  <subject of test>
human mGluR2 receptor (Homo sapiens, UniProt Q14416)

>  <assay value>
7.40

$$$$

(A) CNCc1noc(-c2cc(C)c3c(c2)CN(Cc2ccc(OC(F)(F)F)cc2)C3=O)n1
(B) Cc1cc(CC2CCN(Cc3ccncc3)CC2)cc2c1C(=O)N(Cc1ccc(OC(F)(F)F)cc1)C2
Sorting by pEC50 in descending order, would A or B appear first? Pick one and reply with its label.
B
(B: 7.10, A: 6.33)

* * *

# subject of test: human mGluR2 receptor (Homo sapiens, UniProt Q14416)
# Construct: expressed in transfected cells
# protocol description: [35S]-GTPγS binding assay of mGluR2 receptor activation
# Format: biochemical
# condition description: membranes from CHO cells stably expressing human mGluR2; 1 μM glutamate
property: EC50 (µM)

Below, each entry is followed by its recorded EC50 result.
>  <molecule>
COc1cc(-c2cccnc2)cc2c1C(=O)N(Cc1ccc(Cl)cc1)C2

>  <assay value>
1.16

$$$$
>  <molecule>
Cc1cc(N2CCN3CCCC3C2)cc2c1C(=O)N(Cc1ccc(Cl)cc1)C2 (stereo not drawn)

>  <assay value>
0.81

$$$$
>  <molecule>
Cc1cc(N2CCN(CCc3ccncc3)CC2)cc2c1C(=O)N(Cc1ccc(OC(F)(F)F)cc1)C2

>  <assay value>
0.1

$$$$
>  <molecule>
Cc1cc(N2CCN(Cc3ccncc3)CC2)cc2c1C(=O)N(Cc1ccc(OC(F)(F)F)cc1)C2

>  <assay value>
0.7

$$$$
>  <molecule>
COc1cc(Br)cc2c1C(=O)N(Cc1ccc(Cl)cc1)C2

>  <assay value>
2.8

$$$$
>  <molecule>
Cc1cc(Br)cc2c1C(=O)N(Cc1ccc(OC(F)(F)F)cc1)C2

>  <assay value>
0.37

$$$$
>  <molecule>
Cc1cc(CNCC(C)O)cc2c1C(=O)N(Cc1ccc(OC(F)(F)F)cc1)C2 (stereo not drawn)

>  <assay value>
7.02

$$$$
>  <molecule>
Cc1cc(N2CCN3CCCCC3C2)cc2c1C(=O)N(Cc1ccc(Cl)cc1)C2 (stereo not drawn)

>  <assay value>
1.23

$$$$

(1) Cc1cc(CNCc2ccccn2)cc2c1C(=O)N(Cc1ccc(OC(F)(F)F)cc1)C2
(2) Cc1cc(CN2CCOCC2)cc2c1C(=O)N(Cc1ccc(OC(F)(F)F)cc1)C2
Just tell me: smaller EC50 value, 1 or 2 ? Pick one and reply with its label.
2

* * *

# subject of test: human mGluR2 receptor (Homo sapiens)
# Construct: expressed in transfected cells
# protocol description: [35S]-GTPγS binding assay of mGluR2 receptor activation
# Assay type: biochemical
pEC50: −log10 of the molar value.
property: pEC50

>  <compound>
Cc1cc(CC2CCN(C(C)C)CC2)cc2c1C(=O)N(Cc1ccc(OC(F)(F)F)cc1)C2 [Example 174]

>  <property>
pEC50

>  <assay value>
6.13

$$$$

(P) Cc1cc(-c2nnc(CN(C)C)o2)cc2c1C(=O)N(Cc1ccc(OC(F)(F)F)cc1)C2 [Example 175]
(Q) CNCc1nnc(-c2cc(C)c3c(c2)CN(Cc2ccc(OC(F)(F)F)cc2)C3=O)o1 [Example 181]
(R) Cc1cc(CC2CCN(C3CCCC3)CC2)cc2c1C(=O)N(Cc1ccc(OC(F)(F)F)cc1)C2 [Example 173]
Rank entries according to their pEC50, from the largest number down. To answer, arrange all of the labels according to the requested order.
R, Q, P

* * *

# subject of test: human mGluR2 receptor (Homo sapiens)
# Construct: expressed in transfected cells
# protocol description: [35S]-GTPγS binding assay of mGluR2 receptor activation
# Assay type: biochemical
# condition description: membranes from CHO cells stably expressing human mGluR2; 1 μM glutamate
property: EC50 (µM)

Below, each entry is followed by its recorded EC50 result.
>  <compound>
Cc1cc(Br)cc2c1C(=O)N(Cc1ccc(Cl)cc1)C2

>  <property>
EC50

>  <assay value>
0.71

$$$$
>  <compound>
Cc1cc(CNCc2ccncc2)cc2c1C(=O)N(Cc1ccc(OC(F)(F)F)cc1)C2

>  <property>
EC50

>  <assay value>
0.47

$$$$
>  <compound>
O=C1c2ccc(N3CCN(c4ccncc4)CC3)cc2CN1Cc1ccc(OC(F)(F)F)cc1

>  <property>
EC50

>  <assay value>
9.83

$$$$
>  <compound>
COc1cc(-c2ccncc2)cc2c1C(=O)N(Cc1ccc(OC(F)(F)F)cc1)C2

>  <property>
EC50

>  <assay value>
0.4

$$$$
>  <compound>
Cc1cc(CN2CCC(N3CCCCC3)CC2)cc2c1C(=O)N(Cc1ccc(OC(F)(F)F)cc1)C2

>  <property>
EC50

>  <assay value>
3.25

$$$$
>  <compound>
O=C1c2c(Cl)cc(-c3ccncc3)cc2CN1Cc1ccc(Cl)cc1

>  <property>
EC50

>  <assay value>
0.13

$$$$
>  <compound>
Cc1cc(N2CCN(CCCN(C)C)CC2)cc2c1C(=O)N(Cc1ccc(OC(F)(F)F)cc1)C2

>  <property>
EC50

>  <assay value>
0.75

$$$$
>  <compound>
O=C1c2c(Cl)cc(Br)cc2CN1Cc1ccc(OC(F)(F)F)cc1

>  <property>
EC50

>  <assay value>
0.14

$$$$

(1) Cc1cc(-c2ccncc2)cc2c1C(=O)N(Cc1ccc(OC(F)(F)F)cc1)C2
(2) Cc1cc(-c2cccnc2)cc2c1C(=O)N(Cc1ccc(Oc3ccccc3)cc1)C2
(3) COc1cc(N2CCCN(C)CC2)cc2c1C(=O)N(Cc1ccc(OC(F)(F)F)cc1)C2
(4) O=C1c2ccc(N3CCC4(CC3)C(=O)N(Cc3ccc(F)cc3)CN4c3ccccc3)cc2CN1Cc1ccc(OC(F)(F)F)cc1
Ascending sort, EC50. To answer, arrange all of the labels according to the requested order.
2, 1, 4, 3
(2: 0.05 µM, 1: 0.13 µM, 4: 2.64 µM, 3: 5.04 µM)

* * *

# subject of test: human mGluR2 receptor (Homo sapiens, UniProt Q14416)
# Construct: expressed in transfected cells
# protocol description: [35S]-GTPγS binding assay of mGluR2 receptor activation
# Format: biochemical
# condition description: membranes from CHO cells stably expressing human mGluR2; 1 μM glutamate
pEC50: −log10 of the molar value.
property: pEC50

>  <molecule>
COc1cc(N2CCN3CCCC3C2)cc2c1C(=O)N(Cc1ccc(OC(F)(F)F)cc1)C2 (stereo not drawn)

>  <subject of test>
human mGluR2 receptor (Homo sapiens, UniProt Q14416)

>  <pEC50>
5.72

$$$$

(a) Cc1cc(N2CCN(C)CC2)cc2c1C(=O)N(Cc1ccc(Oc3ccccc3)cc1)C2
(b) COc1cc(N2CCN3CCCC3C2)cc2c1C(=O)N(Cc1ccc(Cl)cc1)C2 (stereo not drawn)
(c) Cc1cc(-c2cccnc2)cc2c1C(=O)N(Cc1ccc(OC(F)(F)F)cc1)C2
(d) Cc1cc(N2CCN(CC3CCCN(C)C3)CC2)cc2c1C(=O)N(Cc1ccc(OC(F)(F)F)cc1)C2 (stereo not drawn)
(e) O=C1c2c(Cl)cc(N3CCN4CCCC4C3)cc2CN1Cc1ccc(Cl)cc1 (stereo not drawn)
Ascending sort, pEC50. To answer, arrange all of the labels according to the requested order.
b, d, e, a, c

(1) CCCN1CCN(c2ccc3c(c2)CN(Cc2ccc(OC(F)(F)F)cc2)C3=O)CC1
(2) O=C1c2c(Cl)cc(-c3cccnc3)cc2CN1Cc1ccc(Cl)cc1
Just tell me: smaller pEC50 value, 1 or 2 ? Pick one and reply with its label.
1
(1: 5.35, 2: 6.44)

(A) O=C1c2c(Cl)cc(-c3cccnc3)cc2CN1Cc1ccc(OC(F)(F)F)cc1
(B) Cc1cc(-c2ccncc2)cc2c1C(=O)N(Cc1ccc(Cl)cc1)C2
(C) Cc1cc(N2CCCN3CCCCC3C2)cc2c1C(=O)N(Cc1ccc(OC(F)(F)F)cc1)C2 (stereo not drawn)
(D) Cc1cc(C2CCNCC2)cc2c1C(=O)N(Cc1ccc(OC(F)(F)F)cc1)C2
Rank entries according to their pEC50, from the largest number down. To answer, arrange all of the labels according to the requested order.
A, B, D, C
